Collected viability, T/C values appear next to each entry.
Test system: HUVEC/MSC spheroids viability
METHOD: Human HUVEC/MSC cell line growth inhibition [KRAS2];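 note: percent of DMSO vehicle control luminescence so 100% = untreated viability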
TEST_SETTINGS: second compound 0.1 µM; first compound 0.01 µM; stronger effect = lower value
Give the value in % but do not write % after it.

CC(C)n1nc(-c2ccc3oc(N)nc3c2)c2c(N)ncnc21 + CC1OCC2(CCN(c3cnc(Sc4ccnc(N)c4Cl)c(N)n3)CC2)C1N :: 49.6
CC(C)n1nc(-c2ccc3oc(N)nc3c2)c2c(N)ncnc21 + C=CC(=O)N1CCN(c2nc(=O)n(-c3c(C)ccnc3C(C)C)c3nc(-c4c(O)cccc4F)c(F)cc23)C(C)C1 :: 48.5
CN(C)C/C=C/C(=O)Nc1cc2c(Nc3ccc(F)c(Cl)c3)ncnc2cc1O[C@H]1CCOC1 + CC1OCC2(CCN(c3cnc(Sc4ccnc(N)c4Cl)c(N)n3)CC2)C1N :: 110
Cn1ncnc1[C@H]1c2n[nH]c(=O)c3cc(F)cc(c23)N[C@@H]1c1ccc(F)cc1 + CC1OCC2(CCN(c3cnc(Sc4ccnc(N)c4Cl)c(N)n3)CC2)C1N :: 75.7
CCN1CCN(Cc2ccc(Nc3ncc(F)c(-c4cc(F)c5nc(C)n(C(C)C)c5c4)n3)nc2)CC1 + CNCc1ccccc1-c1csc(C(C)Nc2nc(C)nc3cc(OC)c(OC)cc23)c1 :: 96.2

# input for lookup
Param item = CC(C)n1nc(-c2ccc3oc(N)nc3c2)c2c(N)ncnc21 + CNCc1ccccc1-c1csc(C(C)Nc2nc(C)nc3cc(OC)c(OC)cc23)c1 ; retrieve measured viability, T/C.
45.6

* * *

Tested on: HUVEC/MSC spheroids viability
METHOD: Human HUVEC/MSC cell line growth inhibition [KRAS2];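 note: percent of DMSO vehicle control luminescence so 100% = untreated viability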
TEST_SETTINGS: second compound 0.3 µM; first compound 0.1 µM; stronger effect = lower value
Collected viability, T/C values appear next to each entry.
Give the value in % but do not write % after it.

Some solved cases for reference:
Cn1nccc1Nc1nccc(-c2cc3c(s2)C(C)(C)N(CCN2CCOCC2)C3=O)n1 + C=CC(=O)N1CCN(c2nc(OCC3CCCN3C)nc3c2CCN(c2cccc4cccc(C)c24)C3)CC1CC#N :: 85.8
O=C(c1cc(Cc2n[nH]c(=O)c3ccccc23)ccc1F)N1CCN(C(=O)C2CC2)CC1 + C=CC(=O)N1CCN(c2nc(OCC3CCCN3C)nc3c2CCN(c2cccc4cccc(C)c24)C3)CC1CC#N :: 91.9
COC(=O)c1ccc2c(C(=Nc3ccc(N(C)C(=O)CN4CCN(C)CC4)cc3)c3ccccc3)c(O)[nH]c2c1 + C=CC(=O)N1CCN(c2nc(OCC3CCCN3C)nc3c2CCN(c2cccc4cccc(C)c24)C3)CC1CC#N :: 78.7
CC(C)NCC(C(=O)N1CCN(c2ncnc3c2C(C)CC3O)CC1)c1ccc(Cl)cc1 (stereo not given) + C=CC(=O)N1CCN(c2nc(OCC3CCCN3C)nc3c2CCN(c2cccc4cccc(C)c24)C3)CC1CC#N :: 84.8

# input for lookup
Write down the reported viability, T/C of COc1cc2nccc(Oc3ccc(NC(=O)C4(C(=O)Nc5ccc(F)cc5)CC4)cc3)c2cc1OC + C=CC(=O)N1CCN(c2nc(OCC3CCCN3C)nc3c2CCN(c2cccc4cccc(C)c24)C3)CC1CC#N , test system: HUVEC/MSC spheroids viability.
80.8

* * *

Test system: HUVEC/MSC spheroids viability
METHOD: Human HUVEC/MSC cell line growth inhibition [KRAS2];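 note: percent of DMSO vehicle control luminescence so 100% = untreated viability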
TEST_SETTINGS: second compound 1 µM; first compound 0.316 µM; stronger effect = lower value
OBSERVABLE: viability, T/C (%)
Give the value in % but do not write % after it.

COc1cc(Nc2ncc3c(n2)-c2ccc(Cl)cc2C(c2c(F)cccc2OC)=NC3)ccc1C(=O)O + CC1OCC2(CCN(c3cnc(Sc4ccnc(N)c4Cl)c(N)n3)CC2)C1N :: 92.9
CCNC(=O)CC1N=C(c2ccc(Cl)cc2)c2cc(OC)ccc2-n2c(C)nnc21 (stereo not drawn) + CNCc1ccccc1-c1csc(C(C)Nc2nc(C)nc3cc(OC)c(OC)cc23)c1 :: 98.5

# input for lookup
Param item = O=C(c1cc(Cc2n[nH]c(=O)c3ccccc23)ccc1F)N1CCN(C(=O)C2CC2)CC1 + COc1cc2nc(C)nc(NC(C)c3cc(N)cc(C(F)(F)F)c3)c2cc1OC1CCOC1 ; retrieve measured viability, T/C.
93.8

* * *

Collected viability, T/C values appear next to each entry.
System: HUVEC/MSC spheroids viability
METHOD: Human HUVEC/MSC cell line growth inhibition [KRAS2];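 note: percent of DMSO vehicle control luminescence so 100% = untreated viability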
TEST_SETTINGS: second compound 1 µM; first compound 0.000316 µM; stronger effect = lower value
Give the value in % but do not write % after it.

Some solved cases for reference:
CN(C)C/C=C/C(=O)Nc1cc2c(Nc3ccc(F)c(Cl)c3)ncnc2cc1O[C@H]1CCOC1 + COc1cc2nc(C)nc(NC(C)c3cc(N)cc(C(F)(F)F)c3)c2cc1OC1CCOC1 :: 112
CN(C)C/C=C/C(=O)Nc1cc2c(Nc3ccc(F)c(Cl)c3)ncnc2cc1O[C@H]1CCOC1 + C=CC(=O)N1CCN(c2nc(=O)n(-c3c(C)ccnc3C(C)C)c3nc(-c4c(O)cccc4F)c(F)cc23)C(C)C1 :: 107
Cn1ncnc1[C@H]1c2n[nH]c(=O)c3cc(F)cc(c23)N[C@@H]1c1ccc(F)cc1 + CC1OCC2(CCN(c3cnc(Sc4ccnc(N)c4Cl)c(N)n3)CC2)C1N :: 83.9

Param item = CC(C)n1nc(-c2ccc3oc(N)nc3c2)c2c(N)ncnc21 + COc1cc2nc(C)nc(NC(C)c3cc(N)cc(C(F)(F)F)c3)c2cc1OC1CCOC1 ; retrieve measured viability, T/C.
76

Param item = CN(C)C/C=C/C(=O)Nc1cc2c(Nc3ccc(F)c(Cl)c3)ncnc2cc1O[C@H]1CCOC1 + CC1OCC2(CCN(c3cnc(Sc4ccnc(N)c4Cl)c(N)n3)CC2)C1N ; retrieve measured viability, T/C.
92.6

Param item = Cn1ncnc1[C@H]1c2n[nH]c(=O)c3cc(F)cc(c23)N[C@@H]1c1ccc(F)cc1 + COc1cc2nc(C)nc(NC(C)c3cc(N)cc(C(F)(F)F)c3)c2cc1OC1CCOC1 ; retrieve measured viability, T/C.
95.2

* * *

System: HUVEC/MSC spheroids viability
METHOD: Human HUVEC/MSC cell line growth inhibition [KRAS2];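 note: percent of DMSO vehicle control luminescence so 100% = untreated viability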
TEST_SETTINGS: second compound 0.1 µM; first compound 0.003 µM; stronger effect = lower value
OBSERVABLE: viability, T/C (%)
Give the value in % but do not write % after it.

CC(=O)Nc1cccc(-n2c(=O)n(C3CC3)c(=O)c3c(Nc4ccc(I)cc4F)n(C)c(=O)c(C)c32)c1 + C=CC(=O)N1CCN(c2nc(=O)n(-c3c(C)ccnc3C(C)C)c3nc(-c4c(O)cccc4F)c(F)cc23)C(C)C1 :: 113
CC(=O)Nc1cccc(-n2c(=O)n(C3CC3)c(=O)c3c(Nc4ccc(I)cc4F)n(C)c(=O)c(C)c32)c1 + CNCc1ccccc1-c1csc(C(C)Nc2nc(C)nc3cc(OC)c(OC)cc23)c1 :: 75.7
CC(=O)Nc1cccc(-n2c(=O)n(C3CC3)c(=O)c3c(Nc4ccc(I)cc4F)n(C)c(=O)c(C)c32)c1 + CC1OCC2(CCN(c3cnc(Sc4ccnc(N)c4Cl)c(N)n3)CC2)C1N :: 89.2

# input for lookup
Write down the reported viability, T/C of CC(=O)Nc1cccc(-n2c(=O)n(C3CC3)c(=O)c3c(Nc4ccc(I)cc4F)n(C)c(=O)c(C)c32)c1 + COc1cc2nc(C)nc(NC(C)c3cc(N)cc(C(F)(F)F)c3)c2cc1OC1CCOC1 , test system: HUVEC/MSC spheroids viability.
74.2

* * *

Test system: HUVEC/MSC spheroids viability
METHOD: Human HUVEC/MSC cell line growth inhibition [KRAS2];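 note: percent of DMSO vehicle control luminescence so 100% = untreated viability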
TEST_SETTINGS: second compound 1 µM; first compound 0.0949 µM; stronger effect = lower value
OBSERVABLE: viability, T/C (%)
Give the value in % but do not write % after it.

CC1COCCN1c1cc(-c2ccnn2C)c2ccnc(-c3ccn[nH]3)c2n1 (stereo not given) + C=CC(=O)N1CCN(c2nc(=O)n(-c3c(C)ccnc3C(C)C)c3nc(-c4c(O)cccc4F)c(F)cc23)C(C)C1 :: 96.2
CC(=O)OC12COC1CC(O)C1(C)C(=O)C(O)C3=C(C)C(OC(=O)C(O)C(NC(=O)OC(C)(C)C)c4ccccc4)CC(O)(C(OC(=O)c4ccccc4)C21)C3(C)C (stereo not given) + CNCc1ccccc1-c1csc(C(C)Nc2nc(C)nc3cc(OC)c(OC)cc23)c1 :: 68.9
CC(=O)OC12COC1CC(O)C1(C)C(=O)C(O)C3=C(C)C(OC(=O)C(O)C(NC(=O)OC(C)(C)C)c4ccccc4)CC(O)(C(OC(=O)c4ccccc4)C21)C3(C)C (stereo not given) + CC1OCC2(CCN(c3cnc(Sc4ccnc(N)c4Cl)c(N)n3)CC2)C1N :: 47.1
CC1COCCN1c1cc(-c2ccnn2C)c2ccnc(-c3ccn[nH]3)c2n1 (stereo not given) + COc1cc2nc(C)nc(NC(C)c3cc(N)cc(C(F)(F)F)c3)c2cc1OC1CCOC1 :: 95.8

# input for lookup
Param item = CC1COCCN1c1cc(-c2ccnn2C)c2ccnc(-c3ccn[nH]3)c2n1 (stereo not given) + CNCc1ccccc1-c1csc(C(C)Nc2nc(C)nc3cc(OC)c(OC)cc23)c1 ; retrieve measured viability, T/C.
70.6
